settings: 25 °C
measure_name: solubility (mM)
Write down the numeric answer in mM and omit the unit.

O=C1CNC(=S)N1c1ccccc1 ... 0.572
Cc1cccc(Cl)c1O ... 168
O=C(NNC(=O)c1ccccc1)c1ccccc1 ... 25.8
Cc1c(Cl)c(O)c(Cl)c(Cl)c1Cl ... 0.025
C[C@H](O)C(F)(F)F ... 2040
CCCC(=O)NCCNC(=O)CCC ... 239
C1CCC2NCCCC2C1 (configuration not stated) ... 82.6
O=Cc1ccc(O)c(C(=O)O)c1 ... 2.32
O=C(O)CCCCc1ccccc1 ... 3.42
O=c1ccccc(Br)c1O ... 3.67

Give its solubility value. Item: Nc1ccc(S(=O)(=O)c2ccc(Cl)cc2)cc1
0.0747

Give its solubility value. Item: O=c1ccc(Br)cc(Br)c1O
0.314

Give its solubility value. Item: CCCC[C@H](O)C(C)C
15.4

Give its solubility value. Item: O=C(O)COCC(=O)O
3110

Give its solubility value. Item: CCCCCCCCCCCCCCCCNC(=O)C(C)O (configuration not stated)
0.223
